// provenance: paper PMC10140010

- Measured Target: BCRP (Homo sapiens, UniProt Q9UNQ0)
- Sequence (Q9UNQ0 whole entry): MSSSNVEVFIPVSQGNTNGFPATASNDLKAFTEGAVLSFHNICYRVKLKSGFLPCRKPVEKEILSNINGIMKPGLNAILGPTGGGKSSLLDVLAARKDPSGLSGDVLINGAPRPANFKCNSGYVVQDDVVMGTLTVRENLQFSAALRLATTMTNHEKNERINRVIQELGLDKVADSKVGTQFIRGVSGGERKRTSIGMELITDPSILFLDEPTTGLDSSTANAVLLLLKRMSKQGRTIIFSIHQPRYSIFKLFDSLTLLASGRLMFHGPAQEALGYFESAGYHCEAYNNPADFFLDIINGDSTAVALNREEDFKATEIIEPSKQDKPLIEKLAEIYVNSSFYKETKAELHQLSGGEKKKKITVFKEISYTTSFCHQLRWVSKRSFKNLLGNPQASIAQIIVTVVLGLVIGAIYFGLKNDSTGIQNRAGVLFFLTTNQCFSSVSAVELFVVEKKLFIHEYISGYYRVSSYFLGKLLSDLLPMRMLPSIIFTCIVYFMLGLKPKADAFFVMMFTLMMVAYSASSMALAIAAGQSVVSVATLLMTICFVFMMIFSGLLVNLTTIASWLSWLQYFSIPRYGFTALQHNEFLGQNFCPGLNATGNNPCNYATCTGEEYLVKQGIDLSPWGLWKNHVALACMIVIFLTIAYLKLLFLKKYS
- Assay Notes: ABC efflux transporter inhibitor test on Caco-2 cells (E3S efflux)
- Test Conditions: human, Caco-2 cells, probe E3S (10 µM)
Recorded Endpoint: inhibition at 1 μM (%)
Field: numeric (%). Do not append units.

Prompt: Sample COc1cc(N2CCC3(CCN(C)CC3)CC2)ccc1Nc1ncc(Cl)c(Nc2ccccc2P(C)(C)=O)n1 [Iruplinalkib] — what was its inhibition at 1 μM?
Completion: 8.3

###

- Test system: P-gp/BCRP/MRP2
- Assay Notes: ABC efflux transporter substrate investigation on Caco-2 cells
- Test Conditions: human, Caco-2, with Verapamil 50 µM
Recorded Endpoint: efflux ratio at 0.5 µM
Hey, just send me the number, nothing else.

Prompt: P-gp/BCRP/MRP2 / efflux ratio at 0.5 µM / `COc1cc(N2CCC3(CCN(C)CC3)CC2)ccc1Nc1ncc(Cl)c(Nc2ccccc2P(C)(C)=O)n1` : value?
Completion: 3.46
